B1: Lysine-specific demethylase 2B, residues 656 to 722; numbered along this chain, Q8NHM5 (parent)
chain: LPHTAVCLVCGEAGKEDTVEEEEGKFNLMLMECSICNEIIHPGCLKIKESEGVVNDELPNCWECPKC

# Variants of: B1
# assay.text: abundance fitness (aPCA) (normalised: wild type 0, dead -1); higher = more abundant; growth selection in yeast, the domain comes from the species named
# test.settings: Homo sapiens
Would you please tag the item met when its abundance fitness is -0.2 or above, and not met when it is below?

# variant.notation, label.class
measured = [
    ("C44A", "not met"),
    ("N27T", "met"),
    ("D56V", "met"),
    ("A13N", "not met"),
    ("H3N", "met"),
    ("P59E", "met"),
    ("G11S", "met"),
    ("C10R", "not met"),
    ("P42G", "not met"),
    ("V53L", "met"),
    ("E22P", "not met"),
    ("V19H", "not met"),
    ("W62A", "not met"),
    ("P42T", "not met"),
    ("N55G", "met"),
    ("K48E", "met"),
    ("K25W", "not met"),
    ("G14E", "not met"),
    ("K25Y", "not met"),
    ("C10P", "not met"),
    ("I39H", "met"),
    ("P2S", "met"),
    ("G24L", "met"),
    ("E49W", "not met"),
    ("E12Q", "met"),
    ("V6L", "met"),
    ("D56Y", "met"),
    ("E16I", "not met"),
    ("T18W", "not met"),
    ("K46P", "met"),
    ("H41G", "not met"),
    ("P65W", "not met"),
    ("W62H", "not met"),
    ("S50R", "met"),
    ("L28P", "met"),
    ("E32L", "met"),
    ("N27D", "met"),
    ("N37A", "met"),
    ("F26Y", "not met"),
    ("L45H", "met"),
    ("G43S", "not met"),
    ("N37K", "met"),
    ("P65F", "not met"),
    ("E16D", "not met"),
    ("H3G", "met"),
]

Source of measurements: the Human Domainome abundance scans (Beltran et al. 2025)
